- target: UniProtKB P16473
- Sequence (P16473 21-764): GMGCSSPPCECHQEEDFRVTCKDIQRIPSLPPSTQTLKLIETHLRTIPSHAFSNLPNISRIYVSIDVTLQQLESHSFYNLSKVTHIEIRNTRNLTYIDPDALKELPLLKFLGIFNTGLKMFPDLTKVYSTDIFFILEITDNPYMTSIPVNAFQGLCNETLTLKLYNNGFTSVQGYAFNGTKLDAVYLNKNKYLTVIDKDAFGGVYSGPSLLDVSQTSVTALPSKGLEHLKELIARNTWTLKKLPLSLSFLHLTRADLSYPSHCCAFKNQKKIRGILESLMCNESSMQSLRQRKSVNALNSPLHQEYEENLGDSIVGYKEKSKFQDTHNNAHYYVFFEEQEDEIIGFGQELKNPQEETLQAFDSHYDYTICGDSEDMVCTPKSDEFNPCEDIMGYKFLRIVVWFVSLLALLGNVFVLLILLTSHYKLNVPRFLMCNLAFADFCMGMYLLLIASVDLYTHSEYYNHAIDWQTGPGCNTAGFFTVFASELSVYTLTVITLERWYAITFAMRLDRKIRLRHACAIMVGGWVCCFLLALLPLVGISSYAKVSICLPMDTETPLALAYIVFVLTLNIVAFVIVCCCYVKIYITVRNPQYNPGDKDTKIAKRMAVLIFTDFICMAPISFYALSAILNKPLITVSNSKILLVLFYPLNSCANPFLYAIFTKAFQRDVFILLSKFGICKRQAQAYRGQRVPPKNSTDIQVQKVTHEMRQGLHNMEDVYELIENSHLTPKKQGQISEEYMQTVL
- experimental.details: Antagonist activity using TSH-induced cAMP production in human TSHR-stably expressing CHO cells
- condition.parameters: human TSH 50 ng/mL
experimental.endpoint: IC50

Previously resolved entries follow.
CN1C(=O)[C@H](NC(N)=O)Cc2ccc(C(C)(F)F)c(Oc3cc(F)ccc3Cl)c21 [Example 75]: < 500 nM
CN1C(=O)[C@H](NC(N)=O)Cc2ccc(Cl)c(Cc3cc(F)ccc3Cl)c21 [Example 57]: < 500 nM
CN1C(=O)[C@H](NC(N)=O)Cc2cccc(Cc3ccccc3C(F)F)c21 [Example 55]: < 500 nM
CN1C(=O)[C@H](NC(N)=O)Cc2cccc(Cc3cc(F)ccc3Cl)c21 [Example 52]: < 500 nM
CCN1C(=O)[C@H](NC(N)=O)Cc2cccc(Oc3ccccc3Cl)c21 [Example 34]: < 500 nM
CN1C(=O)C(NC(N)=O)Cc2cccc(Oc3ccccc3F)c21 (stereo not drawn) [Example 3]: 500 to 3000 nM
CC(C)c1ccccc1Oc1cccc2c1N(C)C(=O)[C@H](NC(N)=O)C2 [Example 17]: 500 to 3000 nM
CN1C(=O)[C@H](NC(N)=O)Cc2cccc(Oc3cccc(OC(F)F)c3)c21 [Example 24]: 500 to 3000 nM

Please look at the following compound next.
IC50 lookup needed for CN1C(=O)[C@H](NC(N)=O)Cc2cccc(Oc3cc(F)ccc3C(F)F)c21 [Example 28] , thanks.
< 500 nM
